# assayed_target: mu opiate receptor (MOR) (Rattus norvegicus, UniProt P33535)
# Construct: from tissue; host or cells: striatum (membrane preparation)
# Sequence (P33535 whole entry): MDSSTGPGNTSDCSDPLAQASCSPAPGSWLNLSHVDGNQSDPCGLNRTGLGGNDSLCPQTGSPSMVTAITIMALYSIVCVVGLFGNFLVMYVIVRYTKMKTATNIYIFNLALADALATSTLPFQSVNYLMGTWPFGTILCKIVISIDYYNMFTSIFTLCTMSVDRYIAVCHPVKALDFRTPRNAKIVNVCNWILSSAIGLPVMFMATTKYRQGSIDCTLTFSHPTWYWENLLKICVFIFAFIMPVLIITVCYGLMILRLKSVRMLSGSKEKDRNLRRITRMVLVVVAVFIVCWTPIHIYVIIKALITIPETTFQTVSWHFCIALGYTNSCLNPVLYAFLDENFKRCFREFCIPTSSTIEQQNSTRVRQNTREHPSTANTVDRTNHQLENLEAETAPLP
# assay_name: MOR agonist activity using [35S]GTPgS binding assay in striatal membranes
# Format: biochemical
# run_parameters: 0.1 μM compound as agonist; Series C-1 table
readout_type: MOR agonist activity ([35S]GTPgS binding to Gao) (%)

> print(dat)
                                   molecule  units.symbol  quantitative.readout
1  O=S(=O)(c1cccc2cccnc12)N1CCC2(CC1)OCCN2S(=O)(=O)c1cccc2cccnc12 [Compound C0143M]             %                  81.0
2  CS(=O)(=O)c1ccc(S(=O)(=O)N2CCC3(CC2)OCCN3S(=O)(=O)c2ccc(S(C)(=O)=O)cc2)cc1             %                 146.3
3  O=S(=O)(c1ccc(Br)cc1F)N1CCC2(CC1)OCCN2S(=O)(=O)c1ccc(Br)cc1F             %                 138.1
4  COc1cc(S(=O)(=O)N2CCC3(CC2)OCCN3S(=O)(=O)c2cc(OC)c(OC)c(OC)c2)cc(OC)c1OC             %                 127.8
